Reference for the values: patent US20170305994A1

- system under test: T1, human DR3 (full length, on cells) (human, UniProt Q93038 25-417)
- T1 sequence: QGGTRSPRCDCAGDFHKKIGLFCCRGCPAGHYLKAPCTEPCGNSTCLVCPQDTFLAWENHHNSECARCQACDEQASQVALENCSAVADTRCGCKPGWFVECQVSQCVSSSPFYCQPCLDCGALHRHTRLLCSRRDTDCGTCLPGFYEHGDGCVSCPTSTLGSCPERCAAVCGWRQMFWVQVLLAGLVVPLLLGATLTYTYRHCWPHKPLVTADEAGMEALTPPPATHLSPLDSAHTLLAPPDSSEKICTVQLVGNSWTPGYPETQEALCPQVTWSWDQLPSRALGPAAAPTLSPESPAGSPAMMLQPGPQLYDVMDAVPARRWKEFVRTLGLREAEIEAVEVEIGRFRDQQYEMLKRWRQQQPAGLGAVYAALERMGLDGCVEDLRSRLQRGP
- assay info: cell-based or functional assay
Each entry below carries its recorded max % inhibition of TNFalpha, donor 1.

- binder: "0143 (chimeric Fab of 44F434, human IgG4 constant domain, hinge Cys->Ser) (Fab, V domains shown, IgG4-Ser, chimeric) VH: EVQLVESGGDLVMPGGSLKLSCAASGFIFSSYGLSWIRQTPDKRLEWVATISGGDSYTYYPDSVKGRFTISSDNAKNTLYLQMTSLKSEDTAMYYCATQREIYYGTYYALDHWGQGTSVTVSS VL: DIQMTQTTSSLSASLGDRVTISCRASQDINNYLNWYQQKPDGTVKLLIYYTSRLQSGVPSRFSGSGSGTDYSLTISSLEQDDIATYFCQQGSPLPWTFGGGTKLEIKR"
  max % inhibition of TNFalpha, donor 1 [%]: 76.7
- binder: "0123 (chimeric Fab of 27F44, human IgG4 constant domain, hinge Cys->Ser) (Fab, V domains shown, murine variable domains, human IgG4 constant domain (IgG4-Ser)) VH: EVKLVESGGGLVKPGGSLKLSCSASGFAFSNYDMSWVRQTPEKRLEWVAAFSSDGYTFYPDSLKGRFTISRDNARNTLYLQMSSLGSEDTALYCCARHADYANYPVMDYWGQGTSVTVSS VL: DIVLAQSPASLLVSLGQRATISCRASKSVSTSGYSYMHWYQQKPGQPPKLLIYLASNLESGVPARFSGSGSGTDFTLNIHPVEEEDAATYYCQHSRELPLTFGAGTMLELKR"
  max % inhibition of TNFalpha, donor 1 [%]: 83.5
- binder: "0124 (chimeric Fab of 28F26, human IgG4 constant domain, hinge Cys->Ser) (Fab, V domains shown, murine variable domains, human IgG4 constant domain (IgG4-Ser)) VH: EVKVVESGGGLVKPGGSLKLSCAASGFVFSSYDMSWVRQIPEKRLEWVAAISSGDYYTYYPDSVKGRFTISRDDARNTLYLQMSSLRSEDTALYYCARHRGGNYPQYAMDYWGQGTSVTVSS VL: DILLTQSPASFAVSLGQRATISCRASKSVSTSGYNYIHWYQQKPGQPPKLLIYLTSNLESGVPARFSGSGSGTDFTLNIHPVEEEDAATYYCQHSRELPFTFGSGTKLEIKR"
  max % inhibition of TNFalpha, donor 1 [%]: 52.3
